- assay.protocol: compound fluorescence in toxin protease inhibitor counterscreen, primary screen, artefact control for toxin protease inhibitor project, biochemical, multiplex microsphere, HTS (AID 624483)
- condition.description: compound autofluorescence counterscreen, microsphere flow cytometry; stronger effect = higher value
About 11,000 (3.1%) of roughly 360,000 compounds were called active. Roughly 2% stayed inconclusive and do not appear here. Many of the other results were omitted from the sample, so actives are more common in it than they were.
metric: fluorescence intensity
Lab note: record just the number, no unit beside it.

State its fluorescence intensity for this compound: `Cc1cc(C)c2cc(CN(Cc3nnnn3Cc3ccc(F)cc3)C3CCCC3)c(=O)[nH]c2c1`
22000

State its fluorescence intensity for this compound: `Cc1ccc(C(=O)OCC(=O)NCc2ccc3c(c2)OCO3)s1`
3100

State its fluorescence intensity for this compound: `CCC(C(=O)Nc1ncccn1)(C(F)(F)F)C(F)(F)F`
3150

State its fluorescence intensity for this compound: `O=C(NCc1cccnc1)C12CC3CC(CC(C3)C1)C2`
3100

State its fluorescence intensity for this compound: `COc1ccc(-c2[nH][nH]c(=O)c2NC(=O)c2ccc([N+](=O)[O-])cc2)cc1`
4210
